Recorded zone of inhibition at 1000 µg/mL, one value per entry.
system: Staphylococcus aureus; experiment: Antibacterial activity against Staphylococcus aureus at 1000 ug/ml after 24 hrs by agar diffusion method; assay type: functional; settings: read-out: IZ
attribute measured: zone of inhibition at 1000 µg/mL (mm)

{"columns": ["mol smiles", "target system", "attribute measured", "reported measurement"],
 "data": [
  ["c1c[nH]c(-c2nc3ccccc3c3nc4ccccc4n23)c1", "Staphylococcus aureus", "zone of inhibition at 1000 µg/mL", 22],
  ["c1ccc(-c2nc3ccccc3c3nc4ccccc4n23)cc1", "Staphylococcus aureus", "zone of inhibition at 1000 µg/mL", 18],
  ["CC1(C)S[C@@H]2[C@H](NC(=O)[C@H](N)c3ccccc3)C(=O)N2[C@H]1C(=O)O", "Staphylococcus aureus", "zone of inhibition at 1000 µg/mL", 48],
  ["c1cc(-c2nc3ccccc3c3nc4ccccc4n23)nc(-c2nc3ccccc3c3nc4ccccc4n23)c1", "Staphylococcus aureus", "zone of inhibition at 1000 µg/mL", 52],
  ["c1ccc(-c2nc3ccccc3c3nc4ccccc4n23)c(-c2nc3ccccc3c3nc4ccccc4n23)c1", "Staphylococcus aureus", "zone of inhibition at 1000 µg/mL", 18],
  ["c1cc(-c2nc3ccccc3c3nc4ccccc4n23)cc(-c2nc3ccccc3c3nc4ccccc4n23)c1", "Staphylococcus aureus", "zone of inhibition at 1000 µg/mL", 21],
  ["c1coc(-c2nc3ccccc3c3nc4ccccc4n23)c1", "Staphylococcus aureus", "zone of inhibition at 1000 µg/mL", 25],
  ["c1ccc2c(c1)nc(-c1ccc(-c3nc4ccccc4c4nc5ccccc5n34)cc1)n1c3ccccc3nc21", "Staphylococcus aureus", "zone of inhibition at 1000 µg/mL", 25],
  ["c1ccc(-c2nc3ccccc3c3nc4ccccc4n23)nc1", "Staphylococcus aureus", "zone of inhibition at 1000 µg/mL", 50],
  ["c1csc(-c2nc3ccccc3c3nc4ccccc4n23)c1", "Staphylococcus aureus", "zone of inhibition at 1000 µg/mL", 51],
  ["c1ccc2c(c1)nc(-c1ccc(-c3nc4ccccc4c4nc5ccccc5n34)s1)n1c3ccccc3nc21", "Staphylococcus aureus", "zone of inhibition at 1000 µg/mL", 55]
]}
